src = the supplement of paper PMC4466140

# target-entity: SpCyk3
# protocol-description: SPOT peptide array binding signal intensity (averaged, normalized) (arbitrary units (background-subtracted, floor 0; scale differs between SH3 domains)); higher = stronger binding of the SH3 domain to the peptide
Provide the recorded SPOT peptide array binding signal intensity for the entries that follow.
Numbers only.

Here's what some known entries look like.
>  <binder>
TKIRRRPQQPLTDFT

>  <obs-value>
1.5

$$$$
>  <binder>
KNRKNLPTIPIRLSG

>  <obs-value>
23.5

$$$$
>  <binder>
DRIRMFIRFPKFLLE

>  <obs-value>
16

$$$$
>  <binder>
QPQRTAPKPPISAPR

>  <obs-value>
0.5

$$$$
>  <binder>
FIRKRAPTPPAPSRS

>  <obs-value>
2

$$$$

For each listed entry, give its SPOT peptide array binding signal intensity.
1. NMLSRPRLAKLPSIR
2. IRMPSNPALPKKLLN

a:
3
4
